// data source = patent US20150210660A1

RUN DESCRIPTION: Evaluation of reactivity with acid (stirring with 2-ethylhexanoic acid in 1,3,5-trimethylbenzene at 150° C.)
Type: physicochemical
ASSAY SETUP: stirring time 4 hrs at 150° C.; calculated from acid values, 0 hr = 100%
READOUT TYPE: Acid residual percentage (%)
Supply the numeric figure in %, leaving out any unit text.

Some compounds with known Acid residual percentage results, for comparison:
Req: Item CC1(C2CCC3(C)OC3C2)CO1 (stereo not drawn) [CELLOXIDE 3000] has what recorded Acid residual percentage?
Resp: 61

Req: Item C=CC1CCC2OC2C1 (stereo not drawn) [CELLOXIDE 2000, 4-vinylcyclohexene oxide] has what recorded Acid residual percentage?
Resp: 49

Req: Item CC(CC(=O)OCC1CCC2OC2C1)CC(C)(C)C (stereo not drawn) has what recorded Acid residual percentage?
Resp: 35

Req: Item CCCCC(CC)COC(=O)C1CC2OC2CC1C(=O)OCC(CC)CCCC (stereo not drawn) [SANSO CIZER E-PS, di-2-ethylhexyl epoxyhexahydrophthalate] has what recorded Acid residual percentage?
Resp: 84

Req: Item O=C(OCC1CCC2OC2C1)C1CCC2OC2C1 (stereo not drawn) [CELLOXIDE 2021P] has what recorded Acid residual percentage?
Resp: 39

Next:
Req: Item C=C(C)C1CCC2(C)OC2C1 [D-Limonene oxide, D-limonene oxide] has what recorded Acid residual percentage?
Resp: 58

----------
RUN DESCRIPTION: Evaluation of reactivity with acid (stirring with 2-ethylhexanoic acid in 1,3,5-trimethylbenzene at 150° C.)
Assay type: physicochemical
ASSAY SETUP: stirring time 0 hr (before heating); JIS K 0070
READOUT TYPE: Acid value (KOH-mg/g)
Supply the numeric figure in KOH-mg/g, leaving out any unit text.

Some compounds with known Acid value results, for comparison:
Req: Item C=CC1CCC2OC2C1 (stereo not drawn) [CELLOXIDE 2000, 4-vinylcyclohexene oxide] has what recorded Acid value?
Resp: 35.90

Req: Item CC(CC(=O)OCC1CCC2OC2C1)CC(C)(C)C (stereo not drawn) has what recorded Acid value?
Resp: 37.66

Would you kindly look at the next entry?
Req: Item CC1(C2CCC3(C)OC3C2)CO1 (stereo not drawn) [CELLOXIDE 3000] has what recorded Acid value?
Resp: 36.04
